# TARGET_ENTITY: Human Polymorphonuclear Leukocyte Elastase (Homo sapiens, UniProt P08246)
# Construct: Crude extract of human polymorphonuclear leukocytes (PMN) containing elastase activity; from tissue; host or cells: human polymorphonuclear leukocytes (crude extract)
# Sequence (P08246 30-267): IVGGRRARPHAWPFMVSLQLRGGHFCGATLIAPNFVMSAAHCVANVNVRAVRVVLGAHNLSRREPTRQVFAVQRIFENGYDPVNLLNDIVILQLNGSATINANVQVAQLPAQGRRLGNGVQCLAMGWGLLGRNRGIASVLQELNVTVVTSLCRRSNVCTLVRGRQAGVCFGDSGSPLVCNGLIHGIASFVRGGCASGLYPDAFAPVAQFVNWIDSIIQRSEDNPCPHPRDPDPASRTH
# PROTOCOL: Enzyme assay for inhibition of human polymorphonuclear leukocyte elastase via hydrolysis of Boc-AAPAN or Boc-AAPVN
# Format: biochemical
# PARTICULARS: pH 7.5, second order rate constant for inactivation of the enzyme, expressed to the nearest thousand, read-out: Kobs/[I]
PARAMETER_MEASURED: kinact/KI (M⁻¹ s⁻¹)

Worked examples follow.
Give the measured kinact/KI of CCC[C@@H](NC(=O)N1C(=O)C(CC)(CC)[C@@H]1Oc1ccc(C(=O)NCCc2cnc[nH]2)cc1)c1ccc(C)cc1 .
2.09e+06

Give the measured kinact/KI of CCC[C@@H](NC(=O)N1C(=O)C(CC)(CC)[C@@H]1Oc1ccc(C(=O)OCC(=O)N(C)C)cc1)c1ccc(C)cc1 (relative stereo) .
3e+06

Give the measured kinact/KI of CCC[C@@H](NC(=O)N1C(=O)C(CC)(CC)[C@@H]1Oc1ccc(C(=O)N(C)CCN(C)Cc2ccc(OC)cc2)cc1)c1ccc(C)cc1 .
1.78e+06

Give the measured kinact/KI of CCC[C@@H](NC(=O)N1C(=O)C(CC)(CC)[C@@H]1Oc1ccc(C(=O)N(C)CCN(C)Cc2cccnc2)cc1)c1ccc(C)cc1 .
2.88e+06

[A] CCC[C@@H](NC(=O)N1C(=O)C(CC)(CC)[C@@H]1Oc1ccc(C(=O)N(C)CCN(C)Cc2ccc(C)cc2C)cc1)c1ccc(C)cc1
[B] CCC[C@@H](NC(=O)N1C(=O)C(CC)(CC)[C@@H]1Oc1ccc(C(=O)OCCCN(C)C)cc1)c1ccc(C)cc1
[C] CCC[C@@H](NC(=O)N1C(=O)C(CC)(CC)[C@@H]1Oc1ccc(C(=O)N(C)C2CCCN(Cc3ccccc3)C2)cc1)c1ccc(C)cc1 (stereo partly shown)
[D] CCC[C@@H](NC(=O)N1C(=O)C(CC)(CC)[C@@H]1Oc1ccc(CC(N)=O)cc1)c1ccc(C)c(C(=O)N2CCOCC2)c1
[E] CCC[C@@H](NC(=O)N1C(=O)C(CC)(CC)[C@@H]1Oc1cc(C)c(C(=O)N(C)CCN(C)C)c(C)c1)c1ccc(C)cc1
Order the entries by their reported kinact/KI, beginning at the minimum. Returns: the labels arranged in the requested order.
E, D, A, C, B
(E: 352000 M⁻¹ s⁻¹, D: 637000 M⁻¹ s⁻¹, A: 1.12e+06 M⁻¹ s⁻¹, C: 1.88e+06 M⁻¹ s⁻¹, B: 2.86e+06 M⁻¹ s⁻¹)

[a] CCC[C@@H](NC(=O)N1C(=O)C(CC)(CC)[C@@H]1Oc1ccc(C(=O)N(C)CCN(C)C2CC3CCC2C3)cc1)c1ccc(C)cc1 (stereo partly shown)
[b] CCC[C@@H](NC(=O)N1C(=O)C(CC)(CC)[C@@H]1Oc1ccc(C(=O)N2CCC[C@H]2CN(C)Cc2ccccc2)cc1)c1ccc(C)cc1
Pick the one with the larger kinact/KI: a vs b # reply format: chosen label
b

[A] CCC[C@@H](NC(=O)N1C(=O)C(CC)(CC)[C@@H]1Oc1ccc(C(=O)OCCN(C(C)C)C(C)C)cc1)c1ccc(C)cc1
[B] CCC[C@@H](NC(=O)N1C(=O)C(CC)(CC)[C@@H]1Oc1ccc(C(=O)N(C)CCN(C)Cc2cccc3ccccc23)cc1)c1ccc(C)cc1
[C] CCC[C@@H](NC(=O)N1C(=O)C(CC)(CC)[C@@H]1Oc1ccc(CC(=O)N(CC)CC)cc1)c1ccc(C)c(C(=O)N(CCC)CCC)c1
Order the entries by their reported kinact/KI, beginning at the minimum. Returns: the labels arranged in the requested order.
C, B, A
(C: 457000 M⁻¹ s⁻¹, B: 1.08e+06 M⁻¹ s⁻¹, A: 1.67e+06 M⁻¹ s⁻¹)
